Origin of measurements: PubChem BioAssay (NCATS)

Test: qHTS profiling for inhibitors of Plasmodium falciparum proliferation (AID 504749);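 note: 0% = DMSO vehicle and full inhibition = artemisinin control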
Settings: P. falciparum in erythrocytes, SYBR Green DNA, 72 h; at 28.7 µM (top of the series); parasite line A
Method: NIH National Institute of Allergy and Infectious Diseases [NIAID] NIH Chemical Genomics Center [NCGC] […] Because mature erythrocytes lack DNA, only Plasmodium-derived DNA is detected. NCGC Assay Protocol Summary: The SYBR Green viability assay was adapted from a method described previously (Plouffe et al., 2008). […] The following morning, fluorescence intensity at 485(14) nm excitation and 535(25) nm emission wavelengths was measured on an EnVision (Perkin Elmer) plate reader. […]
Records with an inconclusive call do not appear.
Please provide measured activity, negative = inhibition for the entries that follow.
Answers are plain numbers, in %.

Field: example entries. Status: answers known.
C/C=C1\C2C=C(C)CC1(N)c1ccc(=O)[nH]c1C2 (centres undefined)	-3.71
CCCCC(=O)N(Cc1ccc(-c2ccccc2-c2nn[nH]n2)cc1)C(C(=O)O)C(C)C (centres undefined)	9.14
O=C1c2cccc3c2[C@@H](CCC3)CN1[C@@H]1CN2CCC1CC2	-7.65

Here's the next entry for you.
activity, negative = inhibition in this record for CC(=O)[C@H]1CC[C@H]2C3CC=C4C[C@@H](O)CC[C@]4(C)C3CC[C@]12C (some centres undefined) : -13
